Source of measurements: patent US9617283B2

# Tested on: EVSA-T (human breast carcinoma)
# methodNotes: Anti-proliferative activity, Alamar Blue assay, EVSA-T
# Assay type: cell-based
# conditionDetails: Homo sapiens, EVSA-T, 72 h, EVSA-T cell line, 72 hours, Alamar Blue; read-out: EVSA-T prolif
Counter-ions that a name gives are not always drawn.
Consider the following partition of reported EC50 into named classes: low: < 2 nM; moderate: ≥ 2 nM and < 8 nM; high: ≥ 8 nM

molecule	labelValue
C[C@@H]1CN(CC(=O)N2CC(C)(C)c3ncc([C@@H](O)c4ccc(F)cc4)cc32)[C@@H](CN2Cc3ccccc3C2=O)CN1 [Example 96]	high
CCCC(F)(F)c1cc2c(cn1)C(C)(C)CN2C(=O)CN1C[C@@H](C)NC[C@@H]1CN1Cc2ccccc2C1=O [Example 27, dihydrochloride]	moderate
C[C@@H]1CN(CC(=O)N2CC(C)(C)c3nnc(Cc4ccc(F)cc4F)cc32)[C@@H](CN2Cc3cccc(F)c3C2=O)CN1 [Example 113, dihydrochloride]	low
CCC1CC(=O)N(C[C@H]2CN[C@H](C)CN2CC(=O)N2CC(C)(C)c3cnc(Cc4ccc(F)cc4F)cc32)C1 (single isomer, unassigned) [Example 83, dihydrochloride]	low
C[C@@H]1CN(CC(=O)N2CC(C)(C)c3cnc(Cc4ccc(F)cc4)cc32)[C@@H](CN2Cc3ccccc3C2=O)CN1 [Example 60, dihydrochloride]	low
CC1=C(C)C(=O)N(C[C@H]2CN[C@H](C)CN2CC(=O)N2CC(C)(C)c3cnc(Cc4ccc(F)cc4)cc32)C1 [Example 36, dihydrochloride]	low
C[C@@H]1CN(CC(=O)N2CC(C)(C)c3ncc(Cc4ccc(F)cc4F)cc32)[C@@H](CN2Cc3ccc(C#N)cc3C2=O)CN1 [Example 112, dihydrochloride]	moderate
C[C@@H]1CN(CC(=O)N2CC(C)(C)c3ncc(Cc4ccc(F)cc4)cc32)[C@@H](CN2CC(=O)NCC2=O)CN1 [Example 22]	high

Dear colleague, I would appreciate it if you could identify the bin for C[C@H]1CC(=O)N(C[C@H]2CN[C@H](C)CN2CC(=O)N2CC(C)(C)c3nnc(Cc4ccc(F)cc4)cc32)C1 [Example 47, dihydrochloride] and reply at your convenience. moderate

Lab log: C[C@@H]1CN(CC(=O)N2CC(C)(C)c3nnc(Cc4ccc(F)cc4F)cc32)[C@@H](CN2Cc3c(C#N)cccc3C2=O)CN1 [Example 119, dihydrochloride] — assign EC50 category moderate

Input CCCC(F)(F)c1cc2c(cn1)C(C)(C)CN2C(=O)CN1C[C@@H](C)NC[C@@H]1CN1CC(C)=C(C)C1=O [Example 28, dihydrochloride] ; output its category high

Bin this entry: C[C@@H]1CN(CC(=O)N2CC(C)(C)c3ncc(Cc4ccc(F)cc4)cc32)[C@@H](CN2C[C@@H](C)OC2=O)CN1 [Example 9] moderate

###

# Tested on: EVSA-T (human breast carcinoma)
# methodNotes: Anti-proliferative activity, Alamar Blue assay, EVSA-T
# Assay type: cell-based
# conditionDetails: Homo sapiens, EVSA-T, 72 h, EVSA-T cell line, 72 hours, Alamar Blue; read-out: EVSA-T prolif
Structures can show the parent of a compound that is named as a salt.
valueType: pEC50
# pEC50 = -log10(concentration in molar units)

compound	pEC50
C[C@@H]1CN(CC(=O)N2CC(C)(C)c3ncc(Cc4ccc(F)cc4)cc32)[C@@H](CN2CC3(COC3)CC2=O)CN1	8.15
C[C@@H]1CN(CC(=O)N2CC(C)(C)c3ncc(Cc4ccc(F)cc4)cc32)[C@@H](CN2C[C@H](C)N(C)CC2=O)CN1 [Example 43, dihydrochloride]	7.92
C[C@@H]1CN(CC(=O)N2CC(C)(C)c3ncc(Cc4ccc(F)cc4)cc32)[C@@H](CN2CCOCCC2=O)CN1 [Example 2, hydrochloride]	8.19
C[C@@H]1CN(CC(=O)N2CC(C)(C)c3cnc(Cc4ccc(F)cc4F)cc32)[C@@H](CN2CC(C)(C)CC2=O)CN1 [Example 32, dihydrochloride]	8.89

For C[C@@H]1CN(CC(=O)N2CC(C)(C)c3ncc(Cc4ccc(F)cc4)cc32)[C@@H](CN2CCCCC2=O)CN1 [Example 21, dihydrochloride] the compound record lists pEC50 as 8.68

Kindly note the recorded pEC50 for C[C@H]1CC(=O)N(C[C@H]2CN[C@H](C)CN2CC(=O)N2CC(C)(C)c3cnc(Cc4ccc(F)cc4F)cc32)C1 [Example 74, dihydrochloride] , which is 8.74
